ASSAYED_SYSTEM: DNA topoisomerase 2-alpha (Homo sapiens) (UniProt P11388)
Sequence (P11388 whole entry): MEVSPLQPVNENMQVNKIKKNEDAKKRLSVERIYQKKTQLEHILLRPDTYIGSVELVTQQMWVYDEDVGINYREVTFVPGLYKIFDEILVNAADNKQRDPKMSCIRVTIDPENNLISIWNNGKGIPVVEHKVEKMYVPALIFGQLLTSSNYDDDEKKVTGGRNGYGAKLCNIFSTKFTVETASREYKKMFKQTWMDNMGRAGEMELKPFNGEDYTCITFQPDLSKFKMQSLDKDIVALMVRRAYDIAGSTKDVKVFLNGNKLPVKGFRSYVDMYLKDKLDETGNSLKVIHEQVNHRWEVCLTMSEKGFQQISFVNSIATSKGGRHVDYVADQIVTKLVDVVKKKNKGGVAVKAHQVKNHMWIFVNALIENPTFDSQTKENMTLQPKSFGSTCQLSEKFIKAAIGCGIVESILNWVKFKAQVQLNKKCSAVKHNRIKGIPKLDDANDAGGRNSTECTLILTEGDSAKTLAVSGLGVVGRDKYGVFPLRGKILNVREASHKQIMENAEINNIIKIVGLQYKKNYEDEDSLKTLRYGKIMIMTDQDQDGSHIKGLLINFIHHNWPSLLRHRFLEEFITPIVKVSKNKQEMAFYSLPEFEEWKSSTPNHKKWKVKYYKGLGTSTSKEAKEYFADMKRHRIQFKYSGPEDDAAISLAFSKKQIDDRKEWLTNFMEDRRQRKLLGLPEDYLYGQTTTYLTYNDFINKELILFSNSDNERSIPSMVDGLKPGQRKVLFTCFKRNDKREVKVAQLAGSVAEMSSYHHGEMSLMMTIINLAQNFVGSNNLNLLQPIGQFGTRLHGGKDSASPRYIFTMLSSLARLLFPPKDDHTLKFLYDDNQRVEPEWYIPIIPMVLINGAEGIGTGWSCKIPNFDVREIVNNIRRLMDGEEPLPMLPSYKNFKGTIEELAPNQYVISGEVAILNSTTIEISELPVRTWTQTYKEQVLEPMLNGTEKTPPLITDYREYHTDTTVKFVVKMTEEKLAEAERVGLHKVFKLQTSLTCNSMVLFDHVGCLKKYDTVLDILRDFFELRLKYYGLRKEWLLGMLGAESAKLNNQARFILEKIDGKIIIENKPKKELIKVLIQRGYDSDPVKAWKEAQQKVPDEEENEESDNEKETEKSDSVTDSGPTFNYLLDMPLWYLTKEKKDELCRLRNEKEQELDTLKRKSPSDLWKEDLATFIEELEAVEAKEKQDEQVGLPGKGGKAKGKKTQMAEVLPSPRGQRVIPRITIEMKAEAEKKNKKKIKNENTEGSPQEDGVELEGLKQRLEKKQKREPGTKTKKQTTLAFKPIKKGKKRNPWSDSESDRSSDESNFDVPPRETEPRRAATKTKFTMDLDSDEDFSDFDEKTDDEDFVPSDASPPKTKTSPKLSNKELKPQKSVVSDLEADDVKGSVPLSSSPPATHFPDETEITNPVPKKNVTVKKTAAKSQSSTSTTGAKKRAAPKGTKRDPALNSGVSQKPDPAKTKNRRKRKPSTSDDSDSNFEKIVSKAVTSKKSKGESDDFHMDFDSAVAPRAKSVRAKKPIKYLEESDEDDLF
ASSAY_REMARKS: Inhibition of human topoisomerase 2-alpha using supercoiled pBR322 plasmid DNA as substrate at 20 uM after 30 mins by agarose gel electrophoresis method relative to control
# inhibition values compiled below
Your answer should be a plain number; it is taken to be in %.

// known answers, use as guide
>  <COMPOUND>
O=C1c2ccccc2-c2nc(-c3ccc(O)cc3)cc(-c3ccc(O)cc3)c21

>  <ASSAYED_SYSTEM>
DNA topoisomerase 2-alpha (Homo sapiens) (UniProt P11388)

>  <inhibition (%)>
30.5

$$$$
>  <COMPOUND>
O=C1c2ccccc2-c2nc(-c3ccc(O)cc3)cc(-c3ccccc3O)c21

>  <ASSAYED_SYSTEM>
DNA topoisomerase 2-alpha (Homo sapiens) (UniProt P11388)

>  <inhibition (%)>
12

$$$$
>  <COMPOUND>
Oc1ccc(-c2cc(-c3ccccc3)nc3c2C(O)c2ccccc2-3)cc1 (stereo not given)

>  <ASSAYED_SYSTEM>
DNA topoisomerase 2-alpha (Homo sapiens) (UniProt P11388)

>  <inhibition (%)>
22.6

$$$$
>  <COMPOUND>
Oc1ccc(-c2cc(-c3cccc(O)c3)c3c(n2)-c2ccccc2C3O)cc1 (stereo not given)

>  <ASSAYED_SYSTEM>
DNA topoisomerase 2-alpha (Homo sapiens) (UniProt P11388)

>  <inhibition (%)>
26.7

$$$$
>  <COMPOUND>
O=C1c2ccccc2-c2nc(-c3cccc(O)c3)cc(-c3cccc(O)c3)c21

>  <ASSAYED_SYSTEM>
DNA topoisomerase 2-alpha (Homo sapiens) (UniProt P11388)

>  <inhibition (%)>
20.8

$$$$

*Q* So what does the record say about inhibition for O=C1c2ccccc2-c2nc(-c3cccc(O)c3)cc(-c3ccc(O)cc3)c21 ?
*A* 93.7

*Q* So what does the record say about inhibition for O=C1c2ccccc2-c2nc(-c3ccccc3O)cc(-c3cccc(O)c3)c21 ?
*A* 12.8

*Q* So what does the record say about inhibition for Oc1cccc(-c2cc(-c3cccc(O)c3)c3c(n2)-c2ccccc2C3O)c1 (stereo not given) ?
*A* 17.8

*Q* So what does the record say about inhibition for O=C1c2ccccc2-c2nc(-c3ccccc3O)cc(-c3ccccc3O)c21 ?
*A* 9.9

*Q* So what does the record say about inhibition for Oc1ccc(-c2cc(-c3ccccc3O)c3c(n2)-c2ccccc2C3O)cc1 (stereo not given) ?
*A* 12.1

Origin of values: ChEMBL document CHEMBL4152374
